# assay_system: CXCR7 (Homo sapiens)
# Sequence (P25106 whole entry): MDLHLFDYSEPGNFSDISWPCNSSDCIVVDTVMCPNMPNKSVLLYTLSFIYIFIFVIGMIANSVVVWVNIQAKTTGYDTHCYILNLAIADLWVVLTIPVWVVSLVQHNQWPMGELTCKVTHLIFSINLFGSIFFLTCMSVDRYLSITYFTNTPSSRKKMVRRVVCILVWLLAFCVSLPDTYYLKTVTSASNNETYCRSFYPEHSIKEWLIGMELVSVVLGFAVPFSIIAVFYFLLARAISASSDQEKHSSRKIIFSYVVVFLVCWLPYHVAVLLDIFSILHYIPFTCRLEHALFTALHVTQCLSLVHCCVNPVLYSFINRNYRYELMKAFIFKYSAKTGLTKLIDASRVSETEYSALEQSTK
# test_summary: CXCR7 β-arrestin recruitment assay in CHO-CXCR7 cells (ProLink/EA β-galactosidase complementation), induced by human SDF-1a
# test_settings: assay buffer, SDF-1a at EC50 concentration
# IC50 annotations

As a guide, the following entries are already answered.
>>> result_value("Cc1cc(C(C)(C)NC(=O)CC2(NC(=O)c3cc(-c4ccc(F)cc4F)on3)CN(CC3CC3)C2)ccn1 [Example 1.114]")
"5 to 100 nM"
>>> result_value("CC(C)(NC(=O)CC1(NC(=O)c2cc(-c3ccc(F)cc3F)on2)CN(c2ncccn2)C1)c1ccccn1 [Example 1.315]")
"1000 to 20000 nM"
>>> result_value("Cc1cc(C)nc(C(C)(C)NC(=O)CC2(NC(=O)c3cn(-c4ccc(F)cc4F)nn3)CN(C3CCCCC3)C2)n1 [Example 1.071]")
"5 to 100 nM"

Q: Please provide the recorded IC50 for Cc1cc(C)nc(C(C)(C)NC(=O)CC2(NC(=O)c3cc(-c4ccc(F)cc4F)on3)CN([C@H]3CC[C@](C)(O)CC3)C2)n1 [Example 1.168] , tested on CXCR7 (Homo sapiens).
Result: < 5 nM

* * *

# assay_system: CXCR7 (Homo sapiens)
# test_summary: CXCR7 β-arrestin recruitment assay in CHO-CXCR7 cells (ProLink/EA β-galactosidase complementation), induced by human SDF-1a
# test_settings: assay buffer, SDF-1a at EC50 concentration
recorded_endpoint: IC50

>>> result_value("CC(C)(NC(=O)CC1(NC(=O)c2cc(-c3ccc(F)cc3F)on2)CN([C@H]2CC[C@@](C)(O)CC2)C1)c1ccccc1F")
"< 5 nM"
>>> result_value("COc1cccc(C(C)(C)NC(=O)CC2(NC(=O)c3cc(-c4ccc(F)cc4F)on3)CN(C3CCC4(CC3)COC4)C2)c1")
"5 to 100 nM"

Q: // IC50 lookup, key: CC1(CN2CC(CC(=O)NC(C)(C)c3ccccn3)(NC(=O)c3cc(-c4ccc(F)cc4F)on3)C2)CCC1
Result: < 5 nM

* * *

# key: entry, value: pIC50
# assay_system: CXCR7 (Homo sapiens)
# test_summary: CXCR7 β-arrestin recruitment assay in CHO-CXCR7 cells (ProLink/EA β-galactosidase complementation), induced by human SDF-1a
# test_settings: assay buffer, SDF-1a at EC50 concentration
pIC50: −log10 of the molar value.

>>> result_value("CC(C)(NC(=O)CC1(NC(=O)c2cc(-c3ccc(F)cc3F)on2)CN([C@H]2CC[C@](C)(O)CC2)C1)c1cccc(C(F)(F)F)n1")
"> 8.30"
>>> result_value("CC(C)(NC(=O)CC1(NC(=O)c2cn(-c3ccc(F)cc3F)nn2)CN([C@H]2CC[C@@](C)(O)CC2)C1)c1cccc(Cl)c1")
"7.00 to 8.30"
>>> result_value("CC(C)(NC(=O)CC1(NC(=O)c2cc(-c3ccc(F)cc3F)on2)CN(C2CCC3(CCC3)CC2)C1)c1ccccn1")
"6.00 to 7.00"

Q: Requested read-out: pIC50. Entry: Cc1cc(C)nc(C(C)(C)NC(=O)CC2(NC(=O)c3cc(-c4ccc(F)cc4F)on3)CN(CC(C)C)C2)n1
Result: 7.00 to 8.30

Q: Input CC(C)(O)CN1CC(CC(=O)NC(C)(C)c2ccc(F)cc2)(NC(=O)c2cc(-c3ccc(F)cc3F)on2)C1
Result: 6.00 to 7.00

Q: Entry CC(C)(NC(=O)CC1(NC(=O)c2cc(-c3ccc(F)cc3F)on2)CN([C@H]2CC[C@](C)(O)CC2)C1)c1c(F)cccc1F please
Result: 6.00 to 7.00

Q: Now this one: COc1cccc(C(C)(C)NC(=O)CC2(NC(=O)c3cc(-c4ccc(F)cc4F)on3)CN(CC(C)(C)O)C2)c1
Result: 7.00 to 8.30

Q: Entry CC(C)(NC(=O)CC1(NC(=O)c2cc(-c3ccc(F)cc3F)on2)CN([C@H]2CC[C@](C)(O)CC2)C1)c1ccnc(C(F)(F)F)c1 please
Result: 7.00 to 8.30

Q: Proceed to COc1cc(Cl)cc(C(C)(C)NC(=O)CC2(NC(=O)c3cc(-c4ccc(F)cc4F)on3)CN([C@H]3CC[C@](C)(O)CC3)C2)c1
Result: > 8.30

Q: And for CCOc1cccc(C(C)(C)NC(=O)CC2(NC(=O)c3cc(-c4ccc(F)cc4F)on3)CN([C@H]3CC[C@](C)(O)CC3)C2)c1 ?
Result: 7.00 to 8.30

Q: Next up: COc1cncc(C(C)(C)NC(=O)CC2(NC(=O)c3cc(-c4ccc(F)cc4F)on3)CN([C@H]3CC[C@](C)(O)CC3)C2)c1
Result: 7.00 to 8.30

Q: Another compound: Cc1cccc(C(C)(C)NC(=O)CC2(NC(=O)c3nnc(-c4ccc(F)cc4F)s3)CN(CC(C)C)C2)n1
Result: 7.00 to 8.30

Q: Try this compound next: CC(C)(O)CN1CC(CC(=O)NC(C)(C)c2cc(Cl)ccc2F)(NC(=O)c2cc(-c3ccc(F)cc3F)on2)C1
Result: 7.00 to 8.30

Q: Same read-out for CC(C)(NC(=O)CC1(NC(=O)c2nnc(-c3ccc(F)cc3F)s2)CN([C@H]2CC[C@@](C)(O)CC2)C1)c1cccc(Cl)c1 ?
Result: > 8.30

Q: Follow-up item: Cc1cc(C(F)(F)F)cc(C(C)(C)NC(=O)CC2(NC(=O)c3nnc(-c4ccc(F)cc4F)s3)CN([C@H]3CC[C@](C)(O)CC3)C2)n1
Result: 7.00 to 8.30
